Tested on: A375
Assay: Cell viability of A375 melanoma cells by Trypan Blue exclusion
Type: cell-based
Settings: Homo sapiens, A-375; 5 μM, 24 h; viable cells as mean percentage of control cells ± SEM, N=3; read-out: Viab A375 5 μM/24 h
Quick rule for you: viability at 5 µM under 70% gets yes (1), anything else gets no (0).

Example entries begin here.
[[record]]
compound = "N=C(NC(=O)NC1CC1)Nc1nc2ccccc2s1 [MTF214]"
system_under_test = "A375"
group_label = "no (0)"

[[record]]
compound = "N=C(NC(=O)Nc1cccc2ccccc12)Nc1nc2ccccc2s1 [MTF418]"
system_under_test = "A375"
group_label = "yes (1)"

[[record]]
compound = "N=C(NC(=O)Nc1ccc(Cl)cc1)Nc1nc(-c2cccc([N+](=O)[O-])c2)cs1 [MTF428]"
system_under_test = "A375"
group_label = "no (0)"

[[record]]
compound = "Cc1nc(NC(=N)NC(=O)Nc2ccc(Br)cc2)sc1C [MTF429]"
system_under_test = "A375"
group_label = "no (0)"

[[record]]
compound = "N=C(NC(=O)Nc1ccccc1Cl)Nc1nc2ccccc2s1 [MTF504]"
system_under_test = "A375"
group_label = "yes (1)"

[[record]]
compound = "N=C(NC(=O)Nc1cccc2ccccc12)Nc1nc(-c2cccc([N+](=O)[O-])c2)cs1 [MTF430]"
system_under_test = "A375"
group_label = "no (0)"

[[record]]
compound = "Cc1nc(NC(=N)NC(=O)Nc2ccccc2)sc1C [MTF496]"
system_under_test = "A375"
group_label = "yes (1)"

[[record]]
compound = "N=C(NC(=O)Nc1cccc2ccccc12)Nc1nc(-c2ccccc2)cs1 [MTF435]"
system_under_test = "A375"
group_label = "no (0)"


Q: is_below(viability at 5 µM, 70%) for COc1ccccc1NC(=O)NC(=N)Nc1nc(-c2cccc([N+](=O)[O-])c2)cs1 [MTF434] ?
Result: yes (1)

Q: is_below(viability at 5 µM, 70%) for Cc1ccccc1NC(=O)NC(=N)Nc1nc(C)c(C)s1 [MTF509] ?
Result: yes (1)

###

Test system: A375
Test: Cell viability of A375 melanoma cells by Trypan Blue exclusion
Type: cell-based
Conditions: Homo sapiens, A-375; 5 μM, 24 h; viable cells as mean percentage of control cells ± SEM, N=3; read-out: Viab A375 5 μM/24 h
Experimental: The BRAFV600E mutant melanoma line A375 (CRL-1619) was purchased from ATCC (Manassas, VA, USA). […] Cell viability was measured by the Trypan Blue exclusion method. […] An aliquot of the cell suspension was then mixed 1:1 with a 0.4% Trypan blue solution and viable cells were counted within 5 minutes on Kova slides under an optical microscope. Results are expressed as the mean percentage of control cells±SEM. […]
Quick rule for you: viability at 5 µM under 60% gets 1, anything else gets 0.

Example entries begin here.
[[record]]
compound = "N=C(NC(=O)Nc1ccccc1)Nc1nc2ccccc2s1"
group_label = 1

[[record]]
compound = "COc1cccc(NC(=O)NC(=N)Nc2nc(C)c(C)s2)c1"
group_label = 0

[[record]]
compound = "Cc1ccccc1NC(O)NC(=N)Nc1nc(-c2cccc([N+](=O)[O-])c2)cs1 (centres unmarked)"
group_label = 0

[[record]]
compound = "Cc1nc(NC(=N)NC(=O)Nc2cccc([N+](=O)[O-])c2)sc1C"
group_label = 0

[[record]]
compound = "Cc1nc(NC(=N)NC(=O)Nc2ccc(Cl)cc2)sc1C"
group_label = 0

[[record]]
compound = "COc1ccccc1NC(=O)NC(=N)Nc1nc2ccccc2s1"
group_label = 0


We next turn to a different compound, shown below.
Q: is_below(viability at 5 µM, 60%) for Cc1ccccc1NC(=O)NC(=N)Nc1nc2ccccc2s1 ?
Result: 1

Data provenance: patent US20260209196A1
